Below, each entry is listed alongside its reported composite z-score.
system: Inhibin beta A chain (activin A); assay: INHBA (activin A) binders on microarrays, primary screen, biochemical, small-molecule microarray, 635 nm fluorescence scan (AID 1107); settings: small-molecule microarray binding, higher = more signal;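 further: mouse activin A protein probed at 4.33 µg/mL on printed slides; score merges bound-protein fluorescence near 667 nm with spot signal-to-noise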
quantity.name: composite z-score

| compound | test.system | quantity.name | numeric.value |
| --- | --- | --- | --- |
| CCN1C(=O)[C@H]2[C@H]3[C@H](O)[C@H](O)CC(=NNC(=O)OCc4ccccc4)[C@@H]3CC[C@H]2C1=O | Inhibin beta A chain (activin A) | composite z-score | -0.291 |
| CCN1C(=O)[C@H]2[C@H]3[C@H](O)[C@H](O)CC(=NOCC[C@@H]4C=C[C@H](OC(C)=O)[C@@H](COC(C)=O)O4)[C@@H]3CC[C@H]2C1=O | Inhibin beta A chain (activin A) | composite z-score | 0.079 |
| COc1ccc(OC[C@@H]2CC3[C@@H](c4ccc(Br)cc4)[C@H](C)CC[C@H]3C(=O)O2)cc1 (stereo partly specified) | Inhibin beta A chain (activin A) | composite z-score | 0.483 |
| COc1ccc(O[C@H]2C=C[C@@H](c3ccccc3)O[C@@H]2CON=C(C)CCN2CCCc3nc(C)c(C)cc32)cc1 | Inhibin beta A chain (activin A) | composite z-score | 0.917 |
| CCOC(=O)CCN1C(=O)[C@H]2[C@H]3[C@H](O)[C@H](O)CC(=O)[C@@H]3CC[C@H]2C1=O | Inhibin beta A chain (activin A) | composite z-score | -0.37 |
| COC(=O)[C@@H]1CC[C@H](C)[C@@H](c2ccc(Br)cc2)N1 | Inhibin beta A chain (activin A) | composite z-score | 0.894 |
| CCCNC(=O)OC[C@H]1O[C@H](CCON=C[C@@H](NS(=O)(=O)c2ccc(C)cc2)[C@H](C)C=CCC(=O)OC)C=C[C@@H]1Oc1ccc(OC)cc1 | Inhibin beta A chain (activin A) | composite z-score | 0.32 |
| COC(=O)[C@H](C)NC(=O)CCC1CC(OC(=O)NCc2cccc3ccccc23)CC2(CCCC(COC(=O)NCCc3ccccc3OC)O2)O1 (stereo partly specified) | Inhibin beta A chain (activin A) | composite z-score | -0.267 |
| O=C(NN=C1C[C@@H](O)[C@@H](O)[C@@H]2[C@@H]3C(=O)N(c4ccc(F)cc4F)C(=O)[C@@H]3CC[C@H]12)OCc1ccccc1 | Inhibin beta A chain (activin A) | composite z-score | 0.0132 |
| CO[C@H]1COC(=O)[C@H](C)COC(=O)[C@H](C)NC(=O)CC=C[C@H]1C | Inhibin beta A chain (activin A) | composite z-score | 0.843 |
| COC(=O)CC=C1c2ccccc2[C@H](OC)[C@H]1C | Inhibin beta A chain (activin A) | composite z-score | 1.05 |
| COc1ccc(OC[C@@H](CO)OC)cc1 | Inhibin beta A chain (activin A) | composite z-score | 0.512 |
| CC(C)=CCCC(C)=CCON=C1C[C@@H](O)[C@@H](O)[C@@H]2[C@@H]3C(=O)N(Cc4ccc5c(c4)OCO5)C(=O)[C@@H]3CC[C@@H]12 | Inhibin beta A chain (activin A) | composite z-score | 1.3 |
| O=C1C=C[C@@H](O)[C@@H]2[C@@H]3C(=O)N(c4cccc(Oc5ccccc5)c4)C(=O)[C@@H]3CC[C@@H]12 | Inhibin beta A chain (activin A) | composite z-score | -0.0914 |
| CCOC(=O)[C@H](CC(C)C)NC(=O)CCC1CC(OC(=O)NCc2ccc3c(c2)OCO3)CC2(CCCC(COC(=O)NCCOC)O2)O1 (stereo partly specified) | Inhibin beta A chain (activin A) | composite z-score | 0.637 |
| C=CC[C@@H]1C=CC(ON=C(C)C)[C@@H](CO)O1 (stereo partly specified) | Inhibin beta A chain (activin A) | composite z-score | 1.14 |

----------
experiment: basal S. cerevisiae growth modulation, no modifier, primary screen, OD600, strain BY4716, 24 h, basal condition (AID 1173); conditions: OD600, 24 h, higher = more signal, called active from +8 up or from −8 down
// z-score lookup, one value per entry
quantity.name: z-score

| molecule | quantity.name | numeric.value |
| --- | --- | --- |
| CSCC[C@@H]1NC(=O)CC=C[C@@H](C)COC(=O)[C@H](C)COC1=O | z-score | -1.59 |
| COC(=O)[C@H](C)NC(=O)CCC1CC(OC(=O)NCCc2ccc(F)cc2)CC2(CCCC(COC(=O)NCc3ccccc3)O2)O1 (stereo not given in full) | z-score | 1.45 |
| C#CCCCON=C1C[C@@H](O)[C@@H](O)[C@@H]2[C@@H]3C(=O)N(C[C@@H]4CCCO4)C(=O)[C@@H]3CC[C@H]12 | z-score | 0.767 |
| COCCNC(=O)OCC1CCCC2(CC(OC(=O)NCc3cccc4ccccc34)CC(CCC(=O)N[C@@H](C)C(=O)OC)O2)O1 (stereo not given in full) | z-score | -0.0524 |
| CC(=O)OC[C@H]1O[C@H](CCON=C(C)CCN2CCCc3nc(C)c(C)cc32)C=C[C@@H]1OC(C)=O | z-score | 1.34 |
| CO[C@@H]1COC(=O)CC=C[C@H](C)[C@H](OC)COC(=O)[C@@H]2CCCN2C(=O)CC=C[C@H]1C | z-score | -1.17 |
| Cc1ccc(S(=O)(=O)N[C@@H]2COC(=O)CC=C[C@@H](C)[C@H](NS(=O)(=O)c3ccc(C)cc3)COC(=O)[C@H](C)NC(=O)CC=C[C@H]2C)cc1 | z-score | -0.547 |
| COC(=O)[C@H](Cc1ccccc1)NC(=O)[C@@H](C)CO | z-score | -0.462 |
| CCc1cc2c(nc1CC)CCN(CCC(C)=NOC(C)CN1CCCCc3nc(C)c(C)cc31)C2 (stereo not given) | z-score | -1.61 |
| O=C1[C@H]2[C@H]3[C@H](O)[C@H](O)CC(=NOCc4ccccc4)[C@H]3CC[C@H]2C(=O)N1C1CCCCC1 | z-score | -0.149 |
| C#CCCCON=C1C[C@@H](O)[C@@H](O)[C@@H]2[C@@H]3C(=O)N(C[C@@H]4CCCO4)C(=O)[C@@H]3CC[C@@H]12 | z-score | 0.43 |
| CCOC(=O)CCN1C(=O)[C@H]2[C@H]3[C@H](O)[C@H](O)CC(=NOCC=C(C)CCC=C(C)C)[C@H]3CC[C@H]2C1=O | z-score | 0.398 |
| C[C@H]1C=CCC(=O)OC[C@H](C)C(=O)N2CCC[C@H]2C(=O)OC1 | z-score | -0.18 |
| CO[C@@H](C(C)C)[C@@H](C)C1OC(=O)CC1O (stereo not given in full) | z-score | -0.139 |
| CC(CCN1CCc2nc(-c3ccccc3)c(-c3ccccc3)cc2C1)=NOC(C)CN1CCCc2nc(C)c(C)cc21 (stereo not given) | z-score | -3.98 |
| CON=C(C)CCN1CCc2nc(-c3ccccc3)c(-c3ccccc3)cc2C1 | z-score | -6.56 |
| C[C@@H]1CC[C@H]2C(=O)O[C@@H](CN=[N+]=[N-])CN2[C@H]1c1ccc(Br)cc1 | z-score | -3.55 |
| C[C@@H](c1ccccc1)N1C(=O)[C@H]2[C@H]3[C@H](O)[C@H](O)CC(=NNC(=O)OCc4ccccc4)[C@@H]3CC[C@H]2C1=O | z-score | 0.862 |
| CC(C)[C@@H](OCc1ccccc1)[C@H](C)CON=C1[C@H]2CCn3c(=O)n(-c4ccccc4)c(=O)n3[C@H]2[C@H](O)[C@@H]2O[C@H]12 | z-score | -1.96 |
| CC#CCOCCC=C1c2ccccc2[C@@H](OC)[C@@H]1C | z-score | -1.71 |
| CC(=O)OC[C@H]1O[C@@H](ON=C(C)CCC(=O)OC[C@H]2O[C@H](C#Cc3ccccc3)C=C[C@@H]2Oc2ccc(C)cc2)[C@H](OC(C)=O)[C@@H](OC(C)=O)[C@@H]1OC(C)=O | z-score | -0.053 |
| CCc1cc2c(nc1CC)CCN(CCC(C)=NOC[C@@H](C)[C@H](OCc1ccccc1)C(C)C)C2 | z-score | -0.258 |
| CCCNC(=O)OC[C@H]1O[C@H](CCON=C[C@@H](NS(=O)(=O)c2ccc(C)cc2)[C@H](C)C=CCC(=O)OC)C=C[C@@H]1Oc1ccc(OC)cc1 | z-score | 0.0177 |
| CCN1C(=O)[C@H]2[C@H]3[C@H](O)[C@H](O)CC(=NOCC[C@@H]4C=C[C@H](OC(C)=O)[C@@H](COC(C)=O)O4)[C@@H]3CC[C@H]2C1=O | z-score | 0.508 |
| CO[C@H]1C[C@@H]2C[C@H](O)CC(CC(=O)O[C@@H](C=CCC(C)C)C[C@@H]3CC[C@H](C)[C@@H](C1)O3)O2 | z-score | -1.47 |
| CC[C@@H](c1ccccc1)n1c(=O)n2n(c1=O)[C@H]1[C@H](O)[C@@H]3O[C@@H]3C(=NOCc3ccccc3)[C@H]1CC2 | z-score | -1.04 |
| CC(CCN1CCc2nc(-c3ccccc3)c(-c3ccccc3)cc2C1)=NO[C@H](C)c1cn([C@H](CO)Cc2ccccc2)nn1 | z-score | -1.74 |
| COC(=O)[C@H](C)NC(=O)CCC1CC(OC(=O)NCc2cccc3ccccc23)CC2(CCCC(COC(=O)NCCC(C)C)O2)O1 (stereo not given in full) | z-score | -0.274 |
| CCOC(=O)[C@H](CC(C)C)NC(=O)CCC1CC(OC(=O)NCc2ccc3c(c2)OCO3)CC2(CCCC(COC(=O)NCCOc3ccccc3)O2)O1 (stereo not given in full) | z-score | 0.592 |
| CC(C)=CCCC(C)=CCON=C1C[C@@H](O)[C@@H](O)[C@@H]2[C@@H]3C(=O)N([C@@H](C)c4ccccc4)C(=O)[C@@H]3CC[C@@H]12 | z-score | 0.408 |
